The measurements presented in this section are drawn from ChEMBL document CHEMBL4689842.

Documented Total Cell Count across a set of compounds
system: U2OS; assay: Multiplex assay against U2OS; assay type: toxicity, cell-based; settings: human, 48 h, 10 µM, compound concentration 10 uM, replicate 1
Respond with the number and no other words.

- compound: "C=CC(=O)Nc1cc(-n2c(=O)ccc3cnc4ccc(-c5ccc(NS(C)(=O)=O)cc5)cc4c32)ccc1C"
  measured_number: 257
- compound: "Cl.NC[C@@H]1O[C@H](C23CC4CC(CC(C4)C2)C3)Cc2c1ccc(O)c2O"
  measured_number: 180
- compound: "CN(c1cc(C(F)(F)F)nc(OCCC(=O)O)n1)c1cccc2c1CCC2"
  measured_number: 251
- compound: "Oc1cccc(-c2nc(N3CCOCC3)c3oc4ncccc4c3n2)c1"
  measured_number: 215
- compound: "CCCCCNC(=N)N/N=C/c1c[nH]c2ccc(OC)cc12.O=C(O)/C=C\\C(=O)O [TEGASEROD MALEATE]"
  measured_number: 260
- compound: "CC(C)[C@H](CO)Nc1nc(Nc2cccc(Cl)c2)c2ncn(C(C)C)c2n1"
  measured_number: 189

Would you kindly look at the next entry?
Input: Endpoint output: Total Cell Count of CC(C)C[C@H](NC(=O)[C@H](Cc1ccccc1)NC(=O)CNC(=O)CNC(=O)[C@@H](N)Cc1ccc(O)cc1)C(=O)O . Value?
Output: 251

====

tested on: U2OS; test: Multiplex assay against U2OS; type: toxicity, cell-based; conditions: human, 48 h, 1 µM, compound concentration 1 uM, replicate 2
Rule for this label: true means Population Mitotic Cells (%) is less than 60%; false means Population Mitotic Cells (%) is at least 60%.

Input: Strictly below 60% in Population Mitotic Cells (%)? CC(C)c1cc(Nc2nc(N3CCC[C@H](N)C3)ncc2C(N)=O)cc(C(C)C)n1
Output: true

Input: Strictly below 60% in Population Mitotic Cells (%)? N#Cc1cccc(C(=O)Nc2cc(-c3ccccc3)nn2-c2ccccc2)c1
Output: false

Input: Strictly below 60% in Population Mitotic Cells (%)? CCCCN(CC)c1nc(C)nc2c1c(C)cn2-c1c(C)cc(C)cc1C.Cl
Output: false

====

tested on: Fibroblast; test: Multiplex assay against human fibroblast; format: toxicity, cell-based; conditions: 24 h, 10 µM, compound concentration 10 uM, replicate 2
measured_attribute: Population Normal (%)
API: value field is a number in %; no unit string.

- molecule: "Cl.Cn1c2c(c3ccc(Cl)c(Cl)c31)C(C#N)C1(CCNCC1)NC2=O (stereo not given)"
  target_system: "Fibroblast"
  measured_attribute: "Population Normal (%)"
  measured_number: 56
- molecule: "CN1C(=O)[C@@H](NC(=O)c2cc3ccccc3[nH]2)N=C(c2ccccc2)c2ccccc21 [DEVAZEPIDE]"
  target_system: "Fibroblast"
  measured_attribute: "Population Normal (%)"
  measured_number: 92
- molecule: "CC[C@H](Nc1ncnc2[nH]cnc12)c1nc2cccc(F)c2c(=O)n1-c1ccccc1 [IDELALISIB]"
  target_system: "Fibroblast"
  measured_attribute: "Population Normal (%)"
  measured_number: 77

Input: Endpoint output: Population Normal (%) of Cl.NC[C@@H]1O[C@H](C23CC4CC(CC(C4)C2)C3)Cc2c1ccc(O)c2O . Value?
Output: 81

Input: Endpoint output: Population Normal (%) of Oc1cccc(-c2nc(N3CCOCC3)c3oc4ncccc4c3n2)c1 [PI-103] . Value?
Output: 95

Input: Endpoint output: Population Normal (%) of NC(=O)c1ccc2nc(-c3ccc(C4(N)CCC4)cc3)c(-c3ccccc3)n2n1 [BAY-1125976] . Value?
Output: 63

Input: Endpoint output: Population Normal (%) of C=CC(=O)Nc1cc(-n2c(=O)ccc3cnc4ccc(-c5ccc(NS(C)(=O)=O)cc5)cc4c32)ccc1C . Value?
Output: 94

Input: Endpoint output: Population Normal (%) of C[C@@H](Oc1cc(-n2cnc3ccc(CN4CCN(C)CC4)cc32)sc1C(N)=O)c1ccccc1C(F)(F)F [GSK-461364] . Value?
Output: 93

Input: Endpoint output: Population Normal (%) of CCOC(=O)CCNc1cc(N2CCc3ccccc3CC2)nc(-c2ccccn2)n1 . Value?
Output: 66

Input: Endpoint output: Population Normal (%) of CC(Cc1ccc(O)c(O)c1)C(C)Cc1ccc(O)c(O)c1 (stereo not given) [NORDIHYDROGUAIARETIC ACID] . Value?
Output: 94
